Listed here: items and their measured pEC50.
# measurement target: T1, Fusion protein of LAG-3 extracellular region and mIgG2a Fc (human)
# T1 construct: Limits of the signal peptide are marked only by lost underlining; also called LAG-3-mFc; LAG-3-mFc fusion protein
# T1 chain: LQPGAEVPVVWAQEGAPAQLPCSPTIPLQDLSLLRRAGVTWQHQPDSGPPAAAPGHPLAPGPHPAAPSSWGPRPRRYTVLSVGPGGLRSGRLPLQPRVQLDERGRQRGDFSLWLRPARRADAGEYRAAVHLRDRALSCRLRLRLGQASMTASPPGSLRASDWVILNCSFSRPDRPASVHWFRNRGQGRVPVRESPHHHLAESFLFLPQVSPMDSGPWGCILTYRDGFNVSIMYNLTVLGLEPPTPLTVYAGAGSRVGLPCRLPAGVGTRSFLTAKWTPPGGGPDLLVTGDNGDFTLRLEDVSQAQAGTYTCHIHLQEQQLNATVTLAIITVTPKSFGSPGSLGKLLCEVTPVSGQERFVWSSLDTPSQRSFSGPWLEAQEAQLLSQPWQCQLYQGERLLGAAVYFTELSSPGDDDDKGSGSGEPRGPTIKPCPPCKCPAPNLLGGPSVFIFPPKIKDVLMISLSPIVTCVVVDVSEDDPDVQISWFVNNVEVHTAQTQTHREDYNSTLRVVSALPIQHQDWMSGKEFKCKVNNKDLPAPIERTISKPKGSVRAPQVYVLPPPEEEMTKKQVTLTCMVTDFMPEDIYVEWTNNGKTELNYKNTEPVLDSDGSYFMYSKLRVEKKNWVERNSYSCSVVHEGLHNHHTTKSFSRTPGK
# assay procedure: ELISA, LAG-3-mFc captured by anti-mouse Fc on plate (which fusion: inferred)
# Text: The binding ability of anti-LAG-3 antibody to human LAG-3 protein was detected by ELISA assay. LAG-3 fusion protein with Fc or mFc tag was immobilized into 96-well microtiter plate by binding to anti-Fc or anti-mFc antibody coated on the microtiter plate, the strength of the signal after the addition of the antibody was used to determine the binding activity of the antibody to LAG-3, the specific experimental method is as follows. […]
FYI, pEC50 means -log10 of a concentration in mol per litre.

Query block: What pEC50 value was documented for this binder, Hu303-013 (antibody, human IgG4 S228P, kappa, V domains shown, Humanized mAb303) VH: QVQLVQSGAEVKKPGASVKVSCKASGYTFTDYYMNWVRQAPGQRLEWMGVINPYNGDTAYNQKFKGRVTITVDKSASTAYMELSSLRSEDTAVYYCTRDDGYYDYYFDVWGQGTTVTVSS VL: DIQMTQSPSSLSASVGDRVTLTCRASQDIGSRLNWLQQKPGGAFKRLIYATSTLDSGVPKRFSGSRSGTDFTLTISSLQPEDFADYYCLQLASSPPTFGGGTKVEIKR ?
Result block: 9.78

Query block: Also Hu229-016 (antibody, human IgG4 S228P, kappa, V domains shown, Humanized mAb229) VH: QVQLVQSGSELKKPGASVKVSCKASGYTFTTSGMSWVKQAPGQGLKWMGWINTYSGVPTYADDFKGRFVFSLDTSVSTAYLQISSLKAEDTATYFCARDNYDARDVYYYAMDYWGQGTTVTVSS VL: DIQMTQSPSSLSASVGDRVTITCRASENIYSNLAWYQQKPGKAPKLLIYAATNLADGVPSRFSGSGSGTDFTLTISSLQPEDFATYYCQHFWITPWTFGGGTKVEIKR , if possible.
Result block: 9.81

Query block: Also Hu303-022 (antibody, human IgG4 S228P, kappa, V domains shown, Humanized mAb303) VH: QVQLVQSGAEVKKPGASVKVSCKASGYTLTDYYMNWVRQAPGQRLEWIGVINPYNGDTAYNQKFKGRATLTVDKSASTAYMELSSLRSEDTAVYYCTRDDGYYDYYFDVWGQGTTVTVSS VL: DIQMTQSPSSLSASVGDRVTITCRASQDIGSRLNWLQQKPGKAFKRLIYATSTLDSGVPKRFSGSRSGTDFTLTISSLQPEDFATYYCLQLASSPPTFGGGTKVEIKR , if possible.
Result block: 9.84

Query block: Also Hu229-013 (antibody, human IgG4 S228P, kappa, V domains shown, also called LAG-3 antibody Hu229-013; LAG3 antibody Hu229-013) VH: QVQLVQSGSELKKPGASVKVSCKASGYTFTTSGMSWVKQAPGQGLKWMGWINTYSGVPTYADDFKGRFVFSLDTSVSTAYLQISSLKAEDTATYYCARDNYDARDVYYYAMDYWGQGTTVTVSS VL: DIQMTQSPSSLSASVGDRVTITCRASENIYSNLAWYQQKPGKAPKLLVYAATNLADGVPSRFSGSGSGTDYTLTISSLQPEDFATYYCQHFWITPWTFGGGTKVEIKR , if possible.
Result block: 9.97

Query block: Also Hu229-012 (antibody, human IgG4 S228P, kappa, V domains shown, Humanized mAb229) VH: QVQLVQSGSELKKPGASVKVSCKASGYTFTTSGMSWVKQAPGQGLKWMGWINTYSGVPTYADDFKGRFVFSLDTSVSTAYLQISSLKAEDTATYYCARDNYDARDVYYYAMDYWGQGTTVTVSS VL: DIQMTQSPSSLSASVGDRVTITCRASENIYSNLAWYQQKPGKAPKLLIYAATNLADGVPSRFSGSGSGTDFTLTISSLQPEDFATYYCQHFWITPWTFGGGTKVEIKR , if possible.
Result block: 9.57

Query block: Also Hu303-010 (antibody, human IgG4 S228P, kappa, V domains shown, Humanized mAb303) VH: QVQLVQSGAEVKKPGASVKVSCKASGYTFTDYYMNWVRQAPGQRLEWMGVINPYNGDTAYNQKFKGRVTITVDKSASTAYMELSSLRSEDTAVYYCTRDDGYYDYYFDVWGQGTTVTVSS VL: DIQMTQSPSSLSASVGDRVTITCRASQDIGSRLNWYQQKPGKAPKRLIYATSTLDSGVPSRFSGSRSGTDFTLTISSLQPEDFATYYCLQLASSPPTFGGGTKVEIKR , if possible.
Result block: 9.86

Query block: Also Hu229-015 (antibody, human IgG4 S228P, kappa, V domains shown, Humanized mAb229) VH: QVQLVQSGSELKKPGASVKVSCKASGYTFTTSGMSWVKQAPGQGLKWMGWINTYSGVPTYADDFKGRFVFSLDTSVSTAYLQISSLKAEDTATYYCARDNYDARDVYYYAMDYWGQGTTVTVSS VL: DIQMTQSPSSLSASVGDRVTITCRASENIYSNLAWYQQKPGKSPKLLVYAATNLADGVPSRFSGSGSGTQYTLTISSLQPEDFATYYCQHFWITPWTFGGGTKVEIKR , if possible.
Result block: 9.81

Query block: Also Hu229-017 (antibody, human IgG4 S228P, kappa, V domains shown, Humanized mAb229) VH: QVQLVQSGSELKKPGASVKVSCKASGYTFTTSGMSWVKQAPGQGLKWMGWINTYSGVPTYADDFKGRFVFSLDTSVSTAYLQISSLKAEDTATYFCARDNYDARDVYYYAMDYWGQGTTVTVSS VL: DIQMTQSPSSLSASVGDRVTITCRASENIYSNLAWYQQKPGKAPKLLVYAATNLADGVPSRFSGSGSGTDYTLTISSLQPEDFATYYCQHFWITPWTFGGGTKVEIKR , if possible.
Result block: 10.32

Query block: Also Hu229-011 (antibody, human IgG4 S228P, kappa, V domains shown, Humanized mAb229) VH: QVQLVQSGSELKKPGASVKVSCKASGYTFTTSGMSWVRQAPGQGLKWMGWINTYSGVPTYADDFKGRFVFSLDTSVSTAYLQISSLKAEDTAVYYCARDNYDARDVYYYAMDYWGQGTTVTVSS VL: DIQMTQSPSSLSASVGDRVTITCRASENIYSNLAWYQQKPGKSPKLLVYAATNLADGVPSRFSGSGSGTQYTLTISSLQPEDFATYYCQHFWITPWTFGGGTKVEIKR , if possible.
Result block: 9.70

As a next step, examine the binder that follows.
Query block: What pEC50 value was documented for this binder, Hu229-010 (antibody, human IgG4 S228P, kappa, V domains shown, Humanized mAb229) VH: QVQLVQSGSELKKPGASVKVSCKASGYTFTTSGMSWVRQAPGQGLKWMGWINTYSGVPTYADDFKGRFVFSLDTSVSTAYLQISSLKAEDTAVYYCARDNYDARDVYYYAMDYWGQGTTVTVSS VL: DIQMTQSPSSLSASVGDRVTITCRASENIYSNLAWYQQKPGKAPKLLVYAATNLADGVPSRFSGSGSGTQYTLTISSLQPEDFATYYCQHFWITPWTFGGGTKVEIKR ?
Result block: 9.76
